Reference source: paper PMC7586386

- Tested on: hTEAD1–4
- PROTOCOL: Thiol conjugation assay, TEAD homologues (range over all four)
- Assay type: binding, human
- Experimental: To serially diluted solutions of the tested compounds in 5 μL of assay buffer [HEPES (25 mM) and NaCl (150 mM) pH 6.5], freshly prepared 5 μL of 0.45 μM protein solution was added and incubated at room temperature for 10 min, followed by addition of 5 μL of 0.45 μM CPM solution, giving a 15 μL final assay volume, 150 nM protein, and 150 nM CPM. The assay plate was shaken at room temperature for 1 h before measuring the fluorescence (Ex/Em: 380/470 nm). […]
READOUT_KIND: IC50

Value of measured IC50 for the entry O=c1cc(CO)oc(C(Nc2ccccc2)c2ccccc2)c1O (stereo not shown) : 2.6 to 6.9 µM
